Attribution: PubChem BioAssay (Tox21)

# ASSAY METHOD TEXT: Human pregnane X receptor (PXR) small molecule agonists, qHTS cell viability counter screen (AID 1346977); also: nearly all actives have a fitted effect of over 50% in size; also: potency is read from the fitted curve at half-maximal effect
# MEASUREMENT SETUP: PXR-Luc HepG2 viability, CellTiter-Fluor, 24 h; series mostly up to 92.4 µM
# From the text: U.S. Tox21 Program National Center for Advancing Translational Sciences [NCATS] NIH Chemical Genomics Center [NCGC] U.S. Environmental Protection Agency [EPA] National Institutes of Environmental Health Sciences [NIEHS] National Toxicology Program [NTP] U.S. Food and Drug Administration [FDA] […]
Inconclusive results are not listed. Calls of active or inactive are those of the source. Calls follow the shape of the dose curve; as a rule, active = well fitted cell-killing curve with a large enough effect in the repeat runs; inconclusive = weak or mixed curves, or effect the other way; inactive = flat fitted curve, though single readings scatter.
ENDPOINT LABEL: Potency

[
  {
    "COMPOUND": "C1=CCCC1",
    "Potency": "inactive"
  },
  {
    "COMPOUND": "CC(Cc1ccc(O)c(O)c1)C(C)Cc1ccc(O)c(O)c1 (centres undefined)",
    "Potency": "inactive"
  },
  {
    "COMPOUND": "CCc1cccc(CC)c1",
    "Potency": "inactive"
  },
  {
    "COMPOUND": "SC1CCCCC1",
    "Potency": "inactive"
  },
  {
    "COMPOUND": "CC(CC(C)(C)C)CC(C)(C)CC(C)(C)C (centres undefined)",
    "Potency": "inactive"
  }
]

QUERY: Which Potency value is on record for Nc1cc([N+](=O)[O-])ccc1Cl ?
RESULT: inactive

QUERY: Value lookup for Potency; key = CCC1(C)C(=O)N(Cl)C(=O)N1Cl (centres undefined)
RESULT: inactive

QUERY: Entry c1ccc(C[P+](c2ccccc2)(c2ccccc2)c2ccccc2)cc1 has what Potency?
RESULT: 24.3 µM (active)

QUERY: Look at this compound and give its reported Potency. O=C(Cl)c1ccc(Cl)cc1Cl
RESULT: inactive

QUERY: Suppose we examine the compound ClC(c1ccccc1)(c1ccccc1)c1ccccc1 ; what Potency value has been reported?
RESULT: inactive

QUERY: For the compound shown here, C=C1CC[C@H]2O[C@]2(C)CC[C@@H]2[C@@H]1CC2(C)C , give the reported Potency.
RESULT: inactive

QUERY: # lookup: Potency of CCOc1ccc([N+](=O)[O-])cc1
RESULT: inactive
